Tested on: MCF7
Test: Cytotoxicity against human MCF7 cells
Type: functional
Measurement Name: GI50 (µg/mL)

{"Compound": "CC(=O)c1c(O)c(CC=C(C)C)c2cc(OCC=C(C)C)c3c(c2c1O)OC(C)(C)C=C3 [ADENAFLORINE D]", "Operator": ">", "Recorded Number": 10}
{"Compound": "COc1c(CC=C(C)C)c(O)c2c(O)c3c(=O)cc(C)oc3cc2c1CC=C(C)C [ADENAFLORINE B]", "Operator": "=", "Recorded Number": 4.3}
{"Compound": "COc1c(CC=C(C)C)c(O)c2c(O)c3c(cc2c1CC=C(C)C)O[C@H](C)CC3=O [ADENAFLORINE A]", "Operator": "=", "Recorded Number": 0.24}
{"Compound": "CC(=O)c1c2c(c3cc(OCC=C(C)C)c(CC=C(C)C)c(O)c3c1O)C=CC(C)(C)O2 [ADENAFLORINE C]", "Operator": "=", "Recorded Number": 1.2}

----------
System: NCI-H460
Assay: Cytotoxicity against human H460 cells
Format: functional
Reported GI50 values for the following compounds.

{"Smiles Entry": "COc1c(CC=C(C)C)c(O)c2c(O)c3c(=O)cc(C)oc3cc2c1CC=C(C)C", "Tested System": "NCI-H460", "GI50, µg/mL": 2.9}
{"Smiles Entry": "CC(=O)c1c2c(c3cc(OCC=C(C)C)c(CC=C(C)C)c(O)c3c1O)C=CC(C)(C)O2", "Tested System": "NCI-H460", "GI50, µg/mL": 1.1}
{"Smiles Entry": "CC(=O)c1c(O)c(CC=C(C)C)c2cc(OCC=C(C)C)c3c(c2c1O)OC(C)(C)C=C3", "Tested System": "NCI-H460", "GI50, µg/mL": 9.3}
{"Smiles Entry": "COc1c(CC=C(C)C)c(O)c2c(O)c3c(cc2c1CC=C(C)C)O[C@H](C)CC3=O", "Tested System": "NCI-H460", "GI50, µg/mL": 0.16}

----------
// reported GI50 per item
System: SF-268
Assay: Cytotoxicity against human SF268 cells
Type: functional

{"Smiles Entry": "CC(=O)c1c(O)c(CC=C(C)C)c2cc(OCC=C(C)C)c3c(c2c1O)OC(C)(C)C=C3", "Operator": ">", "GI50 [µg/mL]": 10}
{"Smiles Entry": "CC(=O)c1c2c(c3cc(OCC=C(C)C)c(CC=C(C)C)c(O)c3c1O)C=CC(C)(C)O2", "Operator": "=", "GI50 [µg/mL]": 1.4}
{"Smiles Entry": "COc1c(CC=C(C)C)c(O)c2c(O)c3c(cc2c1CC=C(C)C)O[C@H](C)CC3=O", "Operator": "=", "GI50 [µg/mL]": 0.13}
{"Smiles Entry": "COc1c(CC=C(C)C)c(O)c2c(O)c3c(=O)cc(C)oc3cc2c1CC=C(C)C", "Operator": "=", "GI50 [µg/mL]": 3.9}
